tested on: HCT/VM46; assay: In vitro cytotoxicity, VM26 resistant HCT/VM46 human colon carcinoma; format: cell-based; conditions: IC50 divided by IC50 for HCT116
A collection of compounds and their measured ratio of IC50 values HCT/VM46 vs HCT116
assay_endpoint: ratio of IC50 values HCT/VM46 vs HCT116

COc1cc([C@@H]2c3cc4c(cc3[C@@H](O[C@@H]3O[C@@H]5CO[C@@H](C)O[C@H]5[C@H](O)[C@H]3O)[C@H]3COC(=O)[C@H]23)OCO4)cc(OC)c1O [VP-16 (Etoposide), Etoposide]: 3.2
COc1ccc([Se](=O)(=O)CCCl)cc1: 0.4
COc1cc([C@@H]2c3cc4c(cc3[C@@H](O[C@@H]3O[C@@H]5CO[C@@H](c6cccs6)O[C@H]5[C@H](O)[C@H]3O)[C@H]3COC(=O)[C@H]23)OCO4)cc(OC)c1O [VM-26 (Teniposide), Teniposide]: 4.9
O=[Se](=O)(CCCl)c1ccccc1: 0.4
